Provide the reported pIC50 of each item.
systemUnderTest: myeloperoxidase (MPO) (Homo sapiens (Human), UniProt P05164)
Sequence (P05164 49-745): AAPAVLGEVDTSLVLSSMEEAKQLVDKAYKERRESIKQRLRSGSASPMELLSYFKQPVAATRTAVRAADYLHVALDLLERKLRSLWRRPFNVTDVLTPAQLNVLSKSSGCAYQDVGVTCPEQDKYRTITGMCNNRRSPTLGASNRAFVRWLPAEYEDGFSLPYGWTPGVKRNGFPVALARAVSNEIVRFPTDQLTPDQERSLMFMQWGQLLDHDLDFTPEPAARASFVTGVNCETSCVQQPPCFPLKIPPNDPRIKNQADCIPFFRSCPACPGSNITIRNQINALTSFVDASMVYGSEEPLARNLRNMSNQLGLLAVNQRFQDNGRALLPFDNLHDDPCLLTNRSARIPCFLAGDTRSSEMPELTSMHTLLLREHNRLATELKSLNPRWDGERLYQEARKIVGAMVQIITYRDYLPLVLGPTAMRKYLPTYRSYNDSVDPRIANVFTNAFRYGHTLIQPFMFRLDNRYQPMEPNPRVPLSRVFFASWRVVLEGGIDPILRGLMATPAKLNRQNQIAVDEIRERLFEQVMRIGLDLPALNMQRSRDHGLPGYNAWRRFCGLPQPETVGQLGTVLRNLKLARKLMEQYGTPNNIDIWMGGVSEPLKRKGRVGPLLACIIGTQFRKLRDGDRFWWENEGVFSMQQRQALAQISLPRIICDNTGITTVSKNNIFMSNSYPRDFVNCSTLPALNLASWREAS
testProtocol: MPO peroxidation assay (Amplex Red assay)
Type: biochemical
experimentalContext: potency range class
pIC50: −log10 of the molar value.

Here are 5 compounds together with their reported answers.
Nc1cc(Cc2cnn(Cc3cccc(Oc4cccc(C5CCNCC5)c4)c3)c2)c2nn[nH]c2n1
7.00 to 9.00
Nc1cc(Cc2cnn(Cc3cccc(OC4CCCNC4)c3)c2)c2nn[nH]c2n1 (centres unmarked)
7.00 to 9.00
Nc1cc(Cc2cnn(Cc3cccc(C4CCNCC4F)c3)c2)c2nn[nH]c2n1 (centres unmarked)
7.00 to 9.00
NCc1cccc(Cn2cc(Cc3cc(N)nc4[nH]nnc34)cn2)c1
7.00 to 9.00
COc1ccc2cccc(-n3cc(Cc4cc(N)nc5[nH]nnc45)cn3)c2c1
7.00 to 9.00

Batch of 2 compounds: report pIC50 for each.
1. CC(C)(C)OC(=O)N1CCCc2ccc(Cn3cc(Cc4cc(N)nc5[nH]nnc45)cn3)cc21
2. Nc1cc(Cc2cnn(Cc3cccc(N4CCNC(C(F)(F)F)C4)c3)c2)c2nn[nH]c2n1 (centres unmarked)

OUT:
6.00 to 7.00
6.00 to 7.00

IN: Give reported pIC50 value for Nc1cc(Cc2cnn(Cc3cccc(N4CC5C(N)C5C4)c3)c2)c2nn[nH]c2n1 (centres unmarked)
OUT: 6.00 to 7.00

---

systemUnderTest: myeloperoxidase (MPO) (Homo sapiens (Human), UniProt P05164)
testProtocol: MPO peroxidation assay (Amplex Red assay)
Type: biochemical
experimentalContext: potency range class
experimentalReadout: IC50

Nc1cc(Cc2cnn(Cc3ccc4c(c3)CC[C@@H]4N)c2)c2nn[nH]c2n1
0.101 to 0.999 µM

Below are 8 compounds. Give each one its IC50.
1. Nc1cccc(Cn2cc(Cc3cc(N)nc4[nH]nnc34)cn2)c1
2. Nc1cc(Cc2cnn(Cc3ccc4[nH]c(=O)ccc4c3)c2)c2nn[nH]c2n1
3. Nc1cc(Cc2cnn(Cc3ccc4ccccc4c3)c2)c2nn[nH]c2n1
4. Nc1cc(Cc2cnn(Cc3cccc(-c4ccccc4)n3)c2)c2nn[nH]c2n1
5. Nc1cc(Cc2cnn(-c3cccc(OCc4ccccc4)c3)c2)c2nn[nH]c2n1
6. COc1cccc(-n2cc(Cc3cc(N)nc4[nH]nnc34)cn2)c1
7. Nc1cc(Cc2cn(Cc3ccccc3)nn2)c2nn[nH]c2n1
8. Nc1cc(Cc2cnn(Cc3cc([C@@H]4CC(=O)NC4CO)cc(C(F)(F)F)c3)c2)c2nn[nH]c2n1 (some centres unmarked)

OUT:
0.001 to 0.1 µM
0.001 to 0.1 µM
0.001 to 0.1 µM
0.001 to 0.1 µM
0.001 to 0.1 µM
0.001 to 0.1 µM
0.001 to 0.1 µM
0.001 to 0.1 µM

Lab note: each compound below needs its IC50 filled in.
1. Nc1cc(Cc2cnn(Cc3ccccc3OCc3ccccc3)c2)c2nn[nH]c2n1
2. Nc1cc(Cc2cnn(Cc3ccc(C(=O)NCCN4CCOCC4)cc3)c2)c2nn[nH]c2n1
3. C[C@@H]1CN(c2cccc(Cn3cc(Cc4cc(N)nc5[nH]nnc45)cn3)c2)C[C@H](C)N1
4. Nc1cc(Cc2cnn(Cc3ccc4c(c3)C(F)(F)CNC4)c2)c2nn[nH]c2n1
5. COc1ccc(-c2ccc(Cn3cc(Cc4cc(N)nc5[nH]nnc45)cn3)cc2)cn1
6. Nc1cc(Cc2cnn(C3CCNC3)c2)c2nn[nH]c2n1 (centres unmarked)
7. CC(CO)NC(=O)c1ccc(Cn2cc(Cc3cc(N)nc4[nH]nnc34)cn2)cc1 (centres unmarked)
8. Nc1cc(Cc2cnn(Cc3cccc(OC(F)F)c3)c2)c2nn[nH]c2n1

OUT:
1: 0.001 to 0.1 µM; 2: 0.101 to 0.999 µM; 3: 0.001 to 0.1 µM; 4: 0.001 to 0.1 µM; 5: 0.101 to 0.999 µM; 6: 0.101 to 0.999 µM; 7: 0.001 to 0.1 µM; 8: 0.001 to 0.1 µM

Provide the reported IC50 of each entry below, same order.
1. Nc1cc(Cc2cnn(Cc3cccc(O[C@H]4CCNC4)c3)c2)c2nn[nH]c2n1
2. Nc1cc(Cn2nc3cccc(Cl)c3n2)c2nn[nH]c2n1
3. Nc1cc(Cc2cnn(-c3cccc(-c4ccccc4)c3)c2)c2nn[nH]c2n1
4. Nc1cc(Cc2cnn(Cc3ccc(C(=O)NCc4ccncc4)cc3)c2)c2nn[nH]c2n1
5. Nc1cc(Cc2cnn(CC3CCCCC3)c2)c2nn[nH]c2n1
6. Nc1cc(Cc2cnn(-c3cncc4ccccc34)c2)c2nn[nH]c2n1
7. CCn1c(Cn2cc(Cc3cc(N)nc4[nH]nnc34)cn2)nc2ccccc21

OUT:
1. 0.001 to 0.1 µM
2. 1 to 10 µM
3. 0.001 to 0.1 µM
4. 0.001 to 0.1 µM
5. 0.001 to 0.1 µM
6. 0.001 to 0.1 µM
7. 0.001 to 0.1 µM

Give me IC50 for each of these compounds, listed below.
1. Nc1cc(Cc2cnn(Cc3ccc(C(=O)NCc4cn[nH]c4)cc3)c2)c2nn[nH]c2n1
2. CC(C)(C)c1cccc(Cn2cc(Cc3cc(N)nc4[nH]nnc34)cn2)c1
3. Nc1cc(Cc2cnn(Cc3cc(F)cc([C@@H]4CCNC4)c3)c2)c2nn[nH]c2n1

OUT:
1: 0.001 to 0.1 µM; 2: 0.001 to 0.1 µM; 3: 0.001 to 0.1 µM

// each compound listed below needs its IC50
1. Nc1cc(Cn2nnc3c(Cl)cccc32)c2nn[nH]c2n1
2. Nc1cc(Cc2cnn(CC3CCc4ccccc4C3)c2)c2nn[nH]c2n1 (centres unmarked)

OUT:
["1 to 10 µM", "0.001 to 0.1 µM"]
